Biological target: PDE5 (Sus scrofa, UniProt A0A287B475)
Assay: Inhibitory action on the enzyme cGMP-PDE obtained from porcine platelets
Format: biochemical
Settings: 1 μM cGMP substrate, 1 mM EGTA, read-out: PDE 5 IC50
pIC50: −log10 of the molar value. Where a name gives a salt, the structure may show the parent alone.
measured.parameter: pIC50

Before answering, review these 6 worked examples.
COc1ccc(CNc2nnc(N3CCC[C@@H](O)C3)c3ccc(C#N)cc23)cc1Cl [Production Example 1, Hydrochloride]; 10.05
COc1ccc(CNc2nnc(N3CCC(F)(CO)CC3)c3ccc(C#N)cc23)cc1Br.Cl [Example 83, Hydrochloride]; 9.30
COc1ccc(CNc2nnc(N(C)CCc3ccccn3)c3ccc(C#N)cc23)cc1Cl [Production Example 8, Dihydrochloride]; 9.33
COc1ccc(CNc2nnc(N3CCC(C(F)CO)CC3)c3ccc(C#N)cc23)cc1Cl.Cl (centres unmarked) [Example 36, Hydrochloride]; 9.60
COc1ccc(CNc2nnc(N(C)Cc3ccccn3)c3ccc(C#N)cc23)cc1Cl [Production Example 7, Dihydrochloride]; 10.52
COc1ccc(CNc2nnc(N3CCC(O)C(C)C3)c3ccc(C#N)cc23)cc1Cl (centres unmarked) [Production Example 11, Hydrochloride]; 9.62

P: COc1ccc(CNc2nnc(N3CCC(F)(CO)CC3)c3ccc(C#N)cc23)cc1Cl [Example 43, Hydrochloride]
Q: COc1ccc(CNc2nnc(N3CCC(O)CC3)c3ccc(C#N)cc23)cc1I [Example 76, Hydrochloride]
R: CO/N=C/c1ccc2c(N3CCC(O)CC3)nnc(NCc3ccc(OC)c(Cl)c3)c2c1 [Example 110, Hydrochloride]
Put these in order: smallest pIC50 first, largest last. Give me the labels in the order the question wants.
R, P, Q

A: COc1ccc(CNc2nnc(N3CCC(O)CC3)c3ccc(-n4cccn4)cc23)cc1Cl [Example 105, Hydrochloride]
B: COc1ccc(CNc2nnc(N3CCC(=NO)CC3)c3ccc(C#N)cc23)cc1Cl [Example 50, Hydrochloride]
Among A and B , which shows a numerically higher pIC50 result? Please reply using the label of the selected record.
A

P: COc1ccc(CNc2nnc(N3CC[C@H](CO)C3)c3ccc(C#N)cc23)cc1Br [Example 79, Hydrochloride]
Q: COc1ccc(CNc2nnc(N3CCC(CO)CC3)c3ccc(C#N)cc23)cc1Br [Example 84, Hydrochloride]
Select the item whose pIC50 value is smaller, choosing between P and Q . Please reply using the label of the selected record.
Q
(Q: 9.03, P: 9.57)

---

Structures can show the parent of a compound that is named as a salt.
Values of IC50 reported for PDE5 (Sus scrofa, UniProt A0A287B475) appear below.
measured.parameter: IC50 (pM)

a: COc1ccc(CNc2nnc(N3[C@@H]4CC[C@H]3C[C@@H](O)C4)c3ccc(C#N)cc23)cc1Cl [Example 52, Hydrochloride]
b: COc1ccc(CCNc2nnc(N3CCC(C#N)CC3)c3ccc(C#N)cc23)cc1Cl [Example 4, Hydrochloride]
c: COc1ccc(CNc2nnc(N3CCC(O)(CO)CC3)c3ccc(C#N)cc23)cc1Cl [Example 6, Hydrochloride]
Rank by IC50 (largest to smallest). Give me the labels in the order the question wants.
c, b, a
(c: 980 pM, b: 510 pM, a: 200 pM)

---

Target: PDE5 (Sus scrofa)
Where a name gives a salt, the structure may show the parent alone.
measured.parameter: IC50 (nM)

Before answering, review these 5 worked examples.
COc1ccc(CNc2nnc(N3CCC[C@H]3CO)c3ccc(C#N)cc23)cc1Cl [Production Example 3, Hydrochloride]; 0.72
COc1ccc(CNc2nnc(N3CCCC(CO)C3)c3ccc(C#N)cc23)cc1Cl (stereo not shown) [Production Example 4, Hydrochloride]; 0.19
COc1ccc(CNc2nnc(C#CC(C)(C)N)c3ccc(C#N)cc23)cc1Cl [Example 25, Hydrochloride]; 0.16
COc1ccc(CNc2nnc(N3CCC(C#N)CC3)c3ccc(C#N)cc23)cc1Cl [Example 3, Hydrochloride]; 1.1
COc1ccc(CNc2nnc(N3CCC(N)CC3)c3ccc(C#N)cc23)cc1Cl [Example 5, Dihydrochloride]; 0.051

A: COc1ccc(CNc2nnc(N3CCC4(CC3)CC(=O)C4)c3ccc(C#N)cc23)cc1Cl [Example 12]
B: COc1ccc(CNc2nnc(N3CCC(O)CC3)c3ccc(C#N)cc23)cc1Br.Cl [Example 77, Hydrochloride]
Among A and B , which shows a numerically higher IC50 result? Please reply using the label of the selected record.
A
